Cited source for all entries: ChEMBL document CHEMBL2384906

Test system: HCT-116
Test: Cytotoxicity against human HCT116 cells after 24 hrs by MTT assay
Format: functional, cell-based
endpoint name: IC50

Here is how some compounds turned out for IC50.
>>> measurement("COc1cc(/C=C/c2noc(/C=C/c3ccc(O)c(OC)c3)c2/N=N/c2ccc(S(=O)(=O)Nc3ccccn3)cc2)ccc1O")
"Not Active"
>>> measurement("COc1ccc(NS(=O)(=O)c2ccc(/N=N/c3c(/C=C/c4ccc(O)c(OC)c4)noc3/C=C/c3ccc(O)c(OC)c3)cc2)nn1")
"Not Active"
>>> measurement("COc1cc(/C=C/c2nn(-c3ccccc3)c(/C=C/c3ccc(O)c(OC)c3)c2/N=N/c2ccc(S(=O)(=O)Nc3cc(C)on3)cc2)ccc1O")
"Not Active"
>>> measurement("COc1cc(/C=C/C(=O)C(/N=N/c2ccc(S(=O)(=O)Nc3ccccn3)cc2)=C(O)/C=C/c2ccc(O)c(OC)c2)ccc1O")
"Not Active"
>>> measurement("COc1cc(/C=C/C(CC(/C=C/c2ccc(O)c(OC)c2)=N/c2ccc(S(=O)(=O)Nc3nc(C)cc(C)n3)cc2)=N\\c2ccc(S(=O)(=O)Nc3nc(C)cc(C)n3)cc2)ccc1O")
"25 µM"
>>> measurement("COc1cc(/C=C/C(=O)C(/N=N/c2ccc(S(N)(=O)=O)cc2)=C(O)/C=C/c2ccc(O)c(OC)c2)ccc1O")
"Not Active"

Consider the additional compound presented here.
Look up IC50: "COc1cc(/C=C/C(CC(/C=C/c2ccc(O)c(OC)c2)=N/c2ccc(S(=O)(=O)Nc3ccccn3)cc2)=N\c2ccc(S(=O)(=O)Nc3ccccn3)cc2)ccc1O" 50 µM

###

Test system: Salmonella typhi
Assay: Antimicrobial activity against Salmonella typhi ATCC 23564 after 24 hrs by broth micro serial dilution method
Assay type: functional, Salmonella enterica subsp. enterica serovar Typhi
Details: Salmonella enterica, ATCC 23564, 24 h
endpoint name: MIC

Worked examples follow.
>>> measurement("COc1cc(/C=C/c2noc(/C=C/c3ccc(O)c(OC)c3)c2/N=N/c2ccc(S(=O)(=O)Nc3nc(C)cc(C)n3)cc2)ccc1O")
"> 80 µM"
>>> measurement("Cc1cc(NS(=O)(=O)c2ccc(N)cc2)no1 [SULFAMETHOXAZOLE]")
"> 160 µM"
>>> measurement("COc1cc(/C=C/c2nn(-c3ccccc3)c(/C=C/c3ccc(O)c(OC)c3)c2/N=N/c2ccc(S(=O)(=O)Nc3ccccn3)cc2)ccc1O")
"> 80 µM"
>>> measurement("COc1ccc(NS(=O)(=O)c2ccc(/N=N/c3c(/C=C/c4ccc(O)c(OC)c4)nn(-c4ccccc4)c3/C=C/c3ccc(O)c(OC)c3)cc2)nn1")
"> 80 µM"
>>> measurement("COc1cc(/C=C/C(=O)C(/N=N/c2ccc(S(=O)(=O)Nc3cc(C)on3)cc2)=C(O)/C=C/c2ccc(O)c(OC)c2)ccc1O")
"> 80 µM"

Entry COc1ccc(NS(=O)(=O)c2ccc(N)cc2)nn1 [SULFAMETHOXYPYRIDAZINE] : reported MIC = ? > 160 µM

Entry under review: "COc1cc(/C=C/c2nn(-c3ccccc3)c(/C=C/c3ccc(O)c(OC)c3)c2/N=N/c2ccc(S(=O)(=O)Nc3cc(C)on3)cc2)ccc1O" . Reported MIC? > 80 µM

What MIC value was documented for this compound, COc1cc(/C=C/C(=O)CC(=O)/C=C/c2ccc(O)c(OC)c2)ccc1O [CURCUMIN] ? > 80 µM
